MEASUREMENT_PROTOCOL: Pharmacokinetic assay in mice, single oral administration
Format: in vivo
RUN_CONDITIONS: male, mouse, ICR mice, 10 mg/kg, plasma
Parameter: AUC(0-t). Scope: all listed entries.
TEST_READOUT: AUC(0-t)

1. Cn1ncc(-c2ccc3c(=O)[nH]nc(CN)c3c2)c1-c1c(F)c(Cl)cc(N2CCCC2)c1C#N = 2980 ng·h/mL
2. Cn1ncc(-c2ccc3c(=O)[nH]nc(CN)c3c2)c1-c1c(F)c(Cl)cc(OC2CC2)c1C#N [MRTX-1979, reference compound] = 973 ng·h/mL
3. C#Cc1cc(-c2cnn(C)c2-c2c(F)cc3ccccc3c2C#N)cc2c(CN)n[nH]c(=O)c12 = 1440 ng·h/mL
4. Cn1ncc(-c2cc(C#N)c3c(=O)[nH]nc(CN)c3c2)c1-c1c(F)c(Cl)cc(N2CCCC2)c1C#N = 2230 ng·h/mL

====

MEASUREMENT_PROTOCOL: Pharmacokinetic assay in mice, single oral administration
Assay type: in vivo
RUN_CONDITIONS: male, mouse, ICR mice, 10 mg/kg, plasma
Text: The purpose of this trial is to study the pharmacokinetic behavior of some compounds of the present invention, and the administration method is: Single oral administration (PO) to ICR mice: ICR mice male N=3 original source: Shanghai Sippr-Bk Lab Animal Co., Ltd. The compounds were weighed and dissolved in 20% PG+10% Solutol HS15+70% pH 3 citrate buffer, respectively, shaken well and sonicated to prepare colorless clear solutions or suspensions. […]
Overview of reported AUC(0-t) across a group of molecules:
TEST_READOUT: AUC(0-t) (ng·h/mL)

1) Cn1ncc(-c2cc(C#N)c3c(=O)[nH]nc(CN)c3c2)c1-c1c(F)c(Cl)cc(OC2CC2)c1C#N = 2900
2) Cn1ncc(-c2cc(C#N)c3c(=O)[nH]nc(CN)c3c2)c1-c1c(F)cc2ccccc2c1C#N = 2530
3) Cn1ncc(-c2cc(C3CC3)c3c(=O)[nH]nc(CN)c3c2)c1-c1c(F)c(Cl)cc(OC2CC2)c1C#N = 2710

====

Listed next: entries and their corresponding Cmax.
MEASUREMENT_PROTOCOL: Pharmacokinetic assay in mice, single oral administration
Assay type: in vivo
RUN_CONDITIONS: male, mouse, ICR mice, 10 mg/kg, plasma
TEST_READOUT: Cmax (ng/mL)

1) Cn1ncc(-c2ccc3c(=O)[nH]nc(CN)c3c2)c1-c1c(F)c(Cl)cc(OC2CC2)c1C#N [MRTX-1979, reference compound] = 266
2) Cn1ncc(-c2ccc3c(=O)[nH]nc(CN)c3c2)c1-c1c(F)c(Cl)cc(N2CCCC2)c1C#N = 810
3) Cn1ncc(-c2cc(C3CC3)c3c(=O)[nH]nc(CN)c3c2)c1-c1c(F)c(Cl)cc(OC2CC2)c1C#N = 576
4) Cn1ncc(-c2cc(C#N)c3c(=O)[nH]nc(CN)c3c2)c1-c1c(F)cc2ccccc2c1C#N = 1750

====

Recorded Cmax values for a group of compounds are listed next.
MEASUREMENT_PROTOCOL: Pharmacokinetic assay in mice, single oral administration
Type: in vivo
RUN_CONDITIONS: male, mouse, ICR mice, 10 mg/kg, plasma
TEST_READOUT: Cmax (ng/mL)

1. Cn1ncc(-c2cc(C#N)c3c(=O)[nH]nc(CN)c3c2)c1-c1c(F)c(Cl)cc(N2CCCC2)c1C#N = 844
2. C#Cc1cc(-c2cnn(C)c2-c2c(F)cc3ccccc3c2C#N)cc2c(CN)n[nH]c(=O)c12 = 378
3. Cn1ncc(-c2cc(C#N)c3c(=O)[nH]nc(CN)c3c2)c1-c1c(F)c(Cl)cc(OC2CC2)c1C#N = 973

====

Reported values of half-life for individual entries
MEASUREMENT_PROTOCOL: Pharmacokinetic assay in mice, single oral administration
Type: in vivo
RUN_CONDITIONS: male, mouse, ICR mice, 10 mg/kg, plasma
TEST_READOUT: half-life

1) C#Cc1cc(-c2cnn(C)c2-c2c(F)cc3ccccc3c2C#N)cc2c(CN)n[nH]c(=O)c12 = 4 h
2) Cn1ncc(-c2cc(C#N)c3c(=O)[nH]nc(CN)c3c2)c1-c1c(F)cc2ccccc2c1C#N = 1.2 h
3) Cn1ncc(-c2ccc3c(=O)[nH]nc(CN)c3c2)c1-c1c(F)c(Cl)cc(N2CCCC2)c1C#N = 5 h
4) Cn1ncc(-c2ccc3c(=O)[nH]nc(CN)c3c2)c1-c1c(F)c(Cl)cc(OC2CC2)c1C#N [MRTX-1979, reference compound] = 1.3 h
5) Cn1ncc(-c2cc(C#N)c3c(=O)[nH]nc(CN)c3c2)c1-c1c(F)c(Cl)cc(N2CCCC2)c1C#N = 6.9 h
6) Cn1ncc(-c2cc(C3CC3)c3c(=O)[nH]nc(CN)c3c2)c1-c1c(F)c(Cl)cc(OC2CC2)c1C#N = 3.2 h
7) Cn1ncc(-c2cc(C#N)c3c(=O)[nH]nc(CN)c3c2)c1-c1c(F)c(Cl)cc(OC2CC2)c1C#N = 5.1 h

====

Parameter: pIC50. Scope: all listed entries.
System: HCT 116 MTAP knockout cells
MEASUREMENT_PROTOCOL: Human colon cancer HCT116 cell proliferation inhibition test (MTAP knockout cells, CellTiter-Glo, 6 days)
Type: cell-based
pIC50: −log10 of the molar value.
TEST_READOUT: pIC50

1) Cn1ncc(-c2cc(C#N)c3c(=O)[nH]nc(CN)c3c2)c1-c1c(F)cc2ccccc2c1C#N (atropisomer, axis not shown; (P)) [Example 4] = 6.73
2) Cn1ncc(-c2cc(C#N)c3c(=O)[nH]nc(CN)c3c2)c1-c1c(F)cc2ccccc2c1C#N [Example 1] = 7.54
3) Cn1ncc(-c2cc(C#N)c3c(=O)[nH]nc(CN)c3c2)c1-c1c(F)cc2ccccc2c1C#N (atropisomer, axis not shown; (M)) [Example 5] = 7.80

====

Measured half-life at 1 µM values are reported for all entries that follow.
MEASUREMENT_PROTOCOL: Liver microsomal stability experiment
Type: in vitro ADME
RUN_CONDITIONS: pH 7.4; human liver microsomes, NADPH, 37° C., 0-45 min; read-out: Human Liver Microsome Stability Half-Life T1/2
TEST_READOUT: half-life at 1 µM (min)

1) Cn1ncc(-c2ccc3c(=O)[nH]nc(CN)c3c2)c1-c1c(F)c(Cl)cc(N2CCCC2)c1C#N = 27
2) Cn1ncc(-c2cc(C#N)c3c(=O)[nH]nc(CN)c3c2)c1-c1c(F)c(Cl)cc(OC2CC2)c1C#N = 123
3) Cn1ncc(-c2cc(C#N)c3c(=O)[nH]nc(CN)c3c2)c1-c1c(F)cc2ccccc2c1C#N = 202
4) Cn1ncc(-c2cc(C3CC3)c3c(=O)[nH]nc(CN)c3c2)c1-c1c(F)c(Cl)cc(OC2CC2)c1C#N = 52
5) C#Cc1cc(-c2cnn(C)c2-c2c(F)cc3ccccc3c2C#N)cc2c(CN)n[nH]c(=O)c12 = 43
6) Cn1ncc(-c2cc(C#N)c3c(=O)[nH]nc(CN)c3c2)c1-c1c(F)c(Cl)cc(N2CCCC2)c1C#N = 38
7) Cn1ncc(-c2ccc3c(=O)[nH]nc(CN)c3c2)c1-c1c(F)c(Cl)cc(OC2CC2)c1C#N [MRTX-1979, reference compound] = 20
